attribute measured: melting point

Some solved entries appear below for comparison.
CCCCc1nc2cccc(C(=O)O)c2n1Cc1ccc(-c2ccccc2-c2n[nH]c(=O)o2)cc1: 204 to 205 °C
COc1ccc2c(c1)C(=O)C(=O)C1=C2OC2(CCN(CC(O)Cc3ccccc3)CC2)CS1 (stereo not drawn): 146 to 147 °C

We next turn to a different compound, shown below.
I have this compound here, CC(C)CC1(CCCCN2CCN(c3ccccn3)CC2)C(=O)Nc2ccccc21 (stereo not drawn) , and I need its recorded melting point.
158 to 159 °C

---

melting point listing for selected compounds.

CCOC(=O)c1cnn(-c2ccccn2)c1S(=O)(=O)NC(=O)Nc1nc(OC)cc(OC)n1: 140 to 142 °C
CN(C)[C@H]1CC[C@@H](n2cc(-c3ccc(Oc4ccccc4)cc3)c3c(N)ncnc32)CC1: 180 to 182 °C

Now consider a different compound.
# melting point lookup, item `O=C(O)C(=O)Cc1ccc(-c2ccccc2)cc1`
215 to 218 °C

---

Reported melting point values follow for various molecules

CN1CCC(NC2c3ccccc3Oc3ccccc32)CC1: 96.5 to 98 °C

Param item = `O=C(Nc1ccc(Oc2ccccc2)cc1)N1CCN(c2cc(C(F)(F)F)nc3ccccc23)CC1` ; retrieve measured melting point.
203 to 204 °C

Need melting point of `CCOC(=O)C(Cc1ccc(-c2ccc([N+](=O)[O-])cc2)o1)(NC(C)=O)C(=O)OCC` , thanks.
183 to 185 °C

For the molecule shown here, `CCCc1c(OCCCCCOc2ccc3oc(C(=O)O)cc3c2)ccc2c1OCCC2=O` , give the reported melting point.
192 to 195 °C

---

attribute measured: melting point

O=C1CC2CS(=O)c3ccccc3C2=NN1c1ccc(Cl)cc1 (centres undefined): 190 to 192 °C
COC(=O)C1=C(C)Nc2ccccc2SC1c1ccc(OC)cc1 (centres undefined): 107 to 110 °C

Please report the recorded melting point for `Cc1nc(N2CCN(Cc3ccc(F)c(F)c3)C2=O)sc1C(N)=O` .
221 to 223 °C

Can you share its melting point? I mean this compound: `O=C1c2ccccc2C(=O)N1CCCCc1nccc(NC(=S)NCC(F)(F)F)n1`
204 to 205 °C

---

attribute measured: melting point

For orientation, consider the following solved cases.
CSc1ccc2c(c1)NC(=O)C2: 179 to 180 °C
C1=C(COc2ccccc2)CCN(Cc2c[nH]c3ccccc23)C1: 140 to 142 °C

Next:
// returns reported melting point for input O=C1CC2OC(CS(=O)Cc3ccccc3)CN12 (racemic)
80.5 to 94.5 °C

---

Item-by-item account of melting point

Worked cases, answers included:
N[C@@H](Cc1ccccc1)C(O)(c1ccccc1)c1ccccc1: 141 to 142 °C
CN(CC(=O)Nc1ccccc1)C(=O)CN1CCCC1=O: 145 to 146 °C
COc1ccc(C=C(CSC(C)=O)C(=O)NCCC(=O)OCc2ccccc2)cc1: 96 °C
Cn1c(C(=O)NCCCNC2CCCCC2)ccc1-c1nc(-c2cccc(C(F)(F)F)c2)cs1: 120 to 123 °C
Oc1ccc(Br)cc1C=Nc1cc(Cl)cc(Cl)c1: 161 to 163 °C

So what's the measured melting point for this one? `Nc1ccc(Br)cc1C(=O)NCCCn1ccnc1`
154 to 156 °C

Bench note: what melting point did Cc1nnc(NCCC2CCCN2C)c2cc3ccccn3c12 (centres undefined) show?
169 °C

melting point lookup needed for `C#CCc1c(C)nc2c(OCc3ccncc3C)cccn12` , thanks.
156 to 157 °C

Recorded melting point for `CCOC(=O)c1cc(C#N)c(Cl)cc1OC` , please?
102 to 103 °C

// lookup melting point for CC(C)OC(=O)Nc1ccc(C2=NNC(=O)CC2C)cc1 (centres undefined)
236 to 237 °C

Query (compound): `CC1CCN(Cc2ccc(C=CC(=O)Nc3ccc(-c4ccc(Cl)cc4)cc3)cc2)CC1` ; field requested: melting point
207 to 208 °C

Please report the recorded melting point for N#CC(C#N)CC(CC(F)(F)C(F)(F)C(F)(F)C(F)F)S(=O)(=O)C(F)(F)F (centres undefined) .
144 to 146 °C

Looking for the measured melting point of O=C1NCC(c2ccsc2)SCC1N1C(=O)c2ccccc2C1=O (centres undefined) , can you help?
243 to 245 °C

Which measured melting point value corresponds to `Cc1nc(NCCc2ccccc2)sc1-c1ccnc(Nc2ccc(N3CCOCC3)cc2)n1` ?
226 to 228 °C
